FYI, the data here is from patent US11173151B2.

biological target: human V1a receptor (Homo sapiens, UniProt P37288); construct: expressed in transfected cells; host or cells: CHO K1 (ATCC), also stably transfected with a modified aequorin; test: Cellular in vitro assay for determining vasopressin receptor activity, V1a receptor cell line (CHO, aequorin luminescence); type: cell-based; conditions: selectivity ratio IC50 hV2 / IC50 hV1a
Sequence (P37288 whole entry): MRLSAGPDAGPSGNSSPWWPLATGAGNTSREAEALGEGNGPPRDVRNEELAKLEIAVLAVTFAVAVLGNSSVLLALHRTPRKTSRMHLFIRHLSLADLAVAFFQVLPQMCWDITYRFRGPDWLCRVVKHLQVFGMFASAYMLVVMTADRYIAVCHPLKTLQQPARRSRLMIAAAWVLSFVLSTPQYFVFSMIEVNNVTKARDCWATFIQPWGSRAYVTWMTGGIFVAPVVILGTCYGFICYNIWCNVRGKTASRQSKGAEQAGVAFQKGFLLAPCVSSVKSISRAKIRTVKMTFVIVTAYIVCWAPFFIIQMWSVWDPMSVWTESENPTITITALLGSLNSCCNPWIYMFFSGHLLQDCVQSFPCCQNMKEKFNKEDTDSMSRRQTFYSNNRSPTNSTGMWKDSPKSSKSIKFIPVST
# if measured ratio IC50 hV2/hV1a < 100: rule met  # else: rule not met

The examples below pair each entry with its known result.
In [3]: df
Out[3]:
                                   molecule  discrete_label
0  O=C(c1ccccc1-n1cnc(Cn2nc(-c3ccc(Cl)cc3)n(C[C@H](O)C(F)(F)F)c2=O)n1)N1CCCC1 [Example 348]    rule not met
1  O=C(NCC1CCCCC1)c1ccccc1-n1cnc(Cn2nc(-c3ccc(Cl)cc3)n(C[C@H](O)C(F)(F)F)c2=O)n1 [Example 318]        rule met
2  O=C(Nc1ncccc1-n1cnc(Cn2nc(-c3ccc(Cl)cc3)n(C[C@H](O)C(F)(F)F)c2=O)n1)C1CC1F (single isomer, unassigned) [Example 78]    rule not met
3  O=C(Nc1cccnc1-n1cnc(Cn2nc(-c3ccc(Cl)cc3)n(C[C@H](O)C(F)(F)F)c2=O)n1)C1CC1F (single isomer, unassigned) [Example 60]    rule not met

# input Does the reported ratio IC50 hV2/hV1a of the following molecule sit strictly below 100? Cc1ccc(NC(=O)c2ccccc2-n2cnc(Cn3nc(-c4ccc(Cl)cc4)n(C[C@H](O)C(F)(F)F)c3=O)n2)cn1 [Example 249]
# output rule met

# input Please answer likewise for O=C(NCc1cc(F)cc(F)c1)c1ccccc1-n1cnc(Cn2nc(-c3ccc(Cl)cc3)n(C[C@H](O)C(F)(F)F)c2=O)n1 [Example 243]
# output rule met

# input Please answer likewise for O=C(NCC1CS(=O)(=O)C1)c1ccccc1-n1cnc(Cn2nc(-c3ccc(Cl)cc3)n(C[C@H](O)C(F)(F)F)c2=O)n1 [Example 184]
# output rule not met

# input Please answer likewise for NC(CNC(=O)c1ncccc1-n1cnc(Cn2nc(-c3ccc(Cl)cc3)n(C[C@H](O)C(F)(F)F)c2=O)n1)C(F)(F)F (mixture of isomers) [Example 429]
# output rule met

# input Please answer likewise for CN1CCCN(C(=O)c2ccccc2-n2cnc(Cn3nc(-c4ccc(Cl)cc4)n(C[C@H](O)C(F)(F)F)c3=O)n2)CC1 [Example 331]
# output rule not met

---

Can you tell me ratio IC50 hV2/hV1a for the items I'm about to list?
target: human V1a receptor (Homo sapiens, UniProt P37288); construct: expressed in transfected cells; host or cells: CHO K1 (ATCC), also stably transfected with a modified aequorin; assay: Cellular in vitro assay for determining vasopressin receptor activity, V1a receptor cell line (CHO, aequorin luminescence); type: cell-based; conditions: selectivity ratio IC50 hV2 / IC50 hV1a

>>> print(df.to_string())
                                   molecule                            assayed_target        quantity_name  observed_measurement
0  Cc1ccnc(NC(=O)c2ccccc2-n2cnc(Cn3nc(-c4ccc(Cl)cc4)n(C[C@H](O)C(F)(F)F)c3=O)n2)n1  human V1a receptor (Homo sapiens, UniProt P37288)  ratio IC50 hV2/hV1a                  24.0
1  O=C(Nc1cccnc1-n1cnc(Cn2nc(-c3ccc(Cl)cc3)n(C[C@H](O)C(F)(F)F)c2=O)n1)[C@@H]1C[C@@H]1C(F)(F)F (racemic)  human V1a receptor (Homo sapiens, UniProt P37288)  ratio IC50 hV2/hV1a                  21.0
2  CC(C)(N)CNC(=O)c1cc(Cl)ccc1-n1cnc(Cn2nc(-c3ccc(Cl)cc3)n(C[C@H](O)C(F)(F)F)c2=O)n1  human V1a receptor (Homo sapiens, UniProt P37288)  ratio IC50 hV2/hV1a                  46.2

Go through the list and state ratio IC50 hV2/hV1a for each entry.
1. O=C(O)CCNc1ccncc1-n1cnc(Cn2nc(-c3ccc(Cl)cc3)n(C[C@H](O)C(F)(F)F)c2=O)n1
2. NC(=O)[C@H]1CC(F)(F)CN1C(=O)c1ncccc1-n1cnc(Cn2nc(-c3ccc(Cl)cc3)n(C[C@H](O)C(F)(F)F)c2=O)n1
3. O=C(NCC1CC1)c1cccc(Cl)c1-n1cnc(Cn2nc(-c3ccc(Cl)cc3)n(C[C@@H](O)C(F)(F)F)c2=O)n1

# output
1.4
31.0
14.9

---

Target: UniProt P37288
Assay: Cellular in vitro assay for determining vasopressin receptor activity, V1a receptor cell line (CHO, aequorin luminescence)
Conditions: CHO cell line transfected with human V1a receptor; [Arg]-vasopressin at EC50 concentration; read-out: IC50 hV1a
Experimental: B-1. Cellular In Vitro Assay for Determining Vasopressin Receptor Activity The identification of agonists and antagonists of the V1a and V2 vasopressin receptors from humans, rats and dogs as well as the quantification of the activity of the compounds of the invention is carried out using recombinant cell lines. […] The bioluminescence of the cell lines is detected using a suitable luminometer [Milligan G, Marshall F, Rees S, Trends in Pharmacological Sciences 17, 235-237 (1996)]. […]
QUANTITY_NAME: pIC50
One number for each entry, as −log10 of the molar value.

See these solved cases before continuing.
In [3]: df
Out[3]:
                      smiles_representation  quantity_name  observed_measurement
0  O=C(Nc1cc(F)ccc1F)c1ccccc1-n1cnc(Cn2nc(-c3ccc(Cl)cc3)n(C[C@H](O)C(F)(F)F)c2=O)n1          pIC50                  8.65
1  O=C(NC1CC1)c1ncccc1-n1cnc(Cn2nc(-c3ccc(Cl)cc3)n(C[C@H](O)C(F)(F)F)c2=O)n1          pIC50                  7.78
2  O=c1n(Cc2ncn(-c3cnccc3NCC(F)(F)F)n2)nc(-c2ccc(Cl)cc2)n1C[C@H](O)C(F)(F)F          pIC50                  6.63
3  Cc1cc(CC(=O)Nc2ncccc2-n2cnc(Cn3nc(-c4ccc(Cl)cc4)n(C[C@H](O)C(F)(F)F)c3=O)n2)on1          pIC50                  7.18
4  O=C(c1ccccc1-n1cnc(Cn2nc(-c3ccc(Cl)cc3)n(C[C@H](O)C(F)(F)F)c2=O)n1)N1C[C@@H]2C[C@H]1CO2          pIC50                  8.47

Pending compound:
# input // map COC(C)(C)C(=O)Nc1ncccc1-n1cnc(Cn2nc(-c3ccc(Cl)cc3)n(C[C@H](O)C(F)(F)F)c2=O)n1 to recorded pIC50 (system: UniProt P37288)
# output 6.84

---

molecular target: human V2 receptor (Homo sapiens); construct: expressed in transfected cells; host or cells: CHO K1 (ATCC) expressing firefly luciferase under a CRE-responsive promoter; test: Cellular in vitro assay for determining vasopressin receptor activity, V2 receptor cell line (CHO, CRE-luciferase); assay type: cell-based; conditions: CHO cell line transfected with human V2 receptor; [Arg8]-vasopressin at EC50 concentration; read-out: IC50 hV2
Sequence (P30518 whole entry): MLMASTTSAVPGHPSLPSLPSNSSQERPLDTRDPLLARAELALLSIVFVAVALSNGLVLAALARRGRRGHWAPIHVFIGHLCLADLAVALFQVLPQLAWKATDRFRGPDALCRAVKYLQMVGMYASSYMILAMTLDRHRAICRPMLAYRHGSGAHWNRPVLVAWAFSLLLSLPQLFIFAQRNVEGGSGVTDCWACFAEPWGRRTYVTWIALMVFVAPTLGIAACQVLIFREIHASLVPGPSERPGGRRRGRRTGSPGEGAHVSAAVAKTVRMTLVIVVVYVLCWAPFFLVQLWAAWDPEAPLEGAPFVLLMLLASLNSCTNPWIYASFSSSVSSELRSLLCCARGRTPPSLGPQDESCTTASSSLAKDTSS
Can you tell me pIC50 for the items I'm about to list?
Numbers only, as −log10 of the molar value.

See these solved cases before continuing.
                                   compound  observed_measurement
0  O=C(c1ncccc1-n1cnc(Cn2nc(-c3ccc(Cl)cc3)n(C[C@@H](O)C(F)(F)F)c2=O)n1)N1CCOC(C(F)(F)F)C1 (stereo partly drawn)                  4.49
1  O=C(c1cccc(Cl)c1-n1cnc(Cn2nc(-c3ccc(Cl)cc3)n(C[C@@H](O)C(F)(F)F)c2=O)n1)N1CCC(F)(F)C1                  4.66
2  O=C(NCCC(F)(F)F)c1ccncc1-n1nc(Cn2nc(-c3ccc(Cl)cc3)n(C[C@H](O)C(F)(F)F)c2=O)nc1C(=O)N1CCS(=O)(=O)CC1                  6.03

Go through the list and state pIC50 for each entry.
1. O=C1CN(C(=O)c2nc(Cn3nc(-c4ccc(Cl)cc4)n(C[C@H](O)C(F)(F)F)c3=O)nn2-c2ncccc2C(=O)NCC(F)(F)F)CCN1
2. CC1(NC(=O)c2ccncc2-n2nc(Cn3nc(-c4ccc(Cl)cc4)n(C[C@H](O)C(F)(F)F)c3=O)nc2C(=O)N2CCS(=O)(=O)CC2)CC1

# output
[5.46, 6.05]

# input Name the recorded pIC50 for O=C(N[C@@H]1C[C@@H]1F)c1ccncc1-n1cnc(Cn2nc(-c3ccc(Cl)cc3)n(C[C@H](O)C(F)(F)F)c2=O)n1 .
# output 6.42
